Assay: amyloid nucleation score (Sup35N fusion, yeast selection) (log enrichment); library NNK3; higher = more nucleation; inactive = no reads after selection;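 also: zero at mode of non-aggregating sequences after 7 days selection at 30°C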
Parameter: amyloid nucleation score

ELSTMIKSSCPPLIDRWLFP    inactive
VTRGVLLCEPVTGMHQVACG    inactive
VNENLTGFIGV    inactive
MRARLANKQGMGPRTRVASV    inactive
DSMVCSHCWLFDEGSYVYGQ    inactive

Request: Please report the recorded amyloid nucleation score for `TVVVGLVGF` .
Result: 0.825

Request: What value of amyloid nucleation score has been reported for the following substance? `VTSVHTALFSLQNDWNNKGD`
Result: inactive

Request: GET /values?readout=amyloid nucleation score&item= `YSQFCYIVHLVIGMVDSRRC`
Result: inactive
